Tested on: Human Pan T Cell (IL-2 release)
measurement_protocol: IL2 released by human pan T cell upon anti-CD3/anti-CD28 stimulation (ELISA)
Assay type: cell-based
condition: Homo sapiens, T-cell, IL-2 response, human pan T cells, calculated with GraphPad Prism
EC50 listing for selected molecules.
readout_name: EC50

                                   molecule     data_value
0  COc1cc2c(cc1Nc1ncc(Cl)c(N3CCc4cc(F)ccc43)n1)CN(C)CC2 [Example 20]  100 to 500 nM
1  COc1cc2c(cc1Nc1ncc(Cl)c(N3CCc4cc(C(F)F)ccc43)n1)CN(C)CC2 [Example 90]      > 1000 nM
2  COc1cc2c(cc1Nc1ncc(Cl)c(N3CC(C(=O)O)C4(CCCC4)C3)n1)CN(C)CC2 (stereo not shown) [Example 169]      > 1000 nM
3  COc1cc2c(cc1Nc1ncc(Cl)c(-n3cc(CC(=O)O)c4cc(F)c(F)cc43)n1)CN(C)CC2 [Example 140]  100 to 500 nM
